Data origin, for the record: ChEMBL document CHEMBL1149133

# testSummary: Compound evaluated for their ability to phosphorylate eIF2R
# Type: functional
# Parameters: unit not given here
Label rule met when Activity >= 0.9; otherwise rule not met.

See these solved cases before continuing.
CC(C)(C)c1ccc(O)c(C2(c3ccccc3)C(=O)Nc3ccc(I)cc32)c1 (centres undefined)
rule met
CC(C)(C)c1ccc(C2(c3ccccc3O)C(=O)Nc3ccccc32)cc1 (centres undefined)
rule met
O=C1Nc2cccc(Br)c2C1(c1ccccc1)c1ccccc1
rule not met

Query: Evaluate CC(C)(C)c1ccc(C2(c3ccc(O)cc3)C(=O)Nc3ccccc32)cc1 (centres undefined) : Activity at minimum 0.9?
Response: rule met

Query: Textbook exercise: given the entry O=C1Nc2ccc(Cl)cc2C1(c1ccccc1)c1ccccc1 , state whether its Activity is greater than or equal to 0.9.
Response: rule not met

Query: Decide: Activity of CC(C)(C)c1cccc(C2(c3ccccc3)C(=O)Nc3ccccc32)c1 (centres undefined) >= 0.9?
Response: rule met

Query: Has COc1ccccc1C1(c2ccc(C(C)(C)C)cc2)C(=O)Nc2ccccc21 (centres undefined) a recorded Activity greater than or equal to 0.9?
Response: rule met

Query: Answer whether Activity of O=C1Nc2ccc(F)cc2C1(c1ccccc1)c1ccccc1 is greater than or equal to 0.9.
Response: rule not met

###

# testSummary: Compound evaluated for their ability to phosphorylate eIF2R
# Format: functional
# Set-up: unit not given here
In plain terms, low Activity, meaning strictly below 1, gives criterion met, and everything else gives criterion not met.

Would you please look over these solved cases?
O=C1Nc2cc(Br)ccc2C1(c1ccccc1)c1ccccc1
criterion met
COc1ccccc1C1(c2ccccc2)C(=O)Nc2ccccc21 (stereo unspecified)
criterion met
O=C1Nc2ccc(I)cc2C1(c1ccccc1)c1ccccc1
criterion not met
O=C1Nc2ccccc2C1(c1ccccc1)c1ccc(O)cc1 (stereo unspecified)
criterion met
O=C1Nc2ccccc2C1(c1ccccc1)c1ccccc1O (stereo unspecified)
criterion met
CCc1ccc2c(c1)C(c1ccccc1)(c1ccccc1)C(=O)N2
criterion met
O=C1Nc2ccc(Br)cc2C1(c1ccccc1)c1ccccc1
criterion met
O=C1Nc2ccc([N+](=O)[O-])cc2C1(c1ccccc1)c1ccccc1
criterion not met

Query: Please let me know if CC(C)(C)c1ccc(C2(c3ccccc3)C(=O)Nc3ccccc32)cc1 (stereo unspecified) shows Activity below 1.
Response: criterion met

Query: Threshold test, Activity < 1: CC(C)(C)c1ccc(O)c(C2(c3ccccc3)C(=O)Nc3ccccc32)c1 (stereo unspecified)
Response: criterion not met
